Tested on: DeltatarO mutant
Experiment: S. aureus survival, RN4220 and DeltatarO strains – OD600, teichoic acid synthesis inhibitors, primary screen (AID 463173)
Settings: S. aureus RN4220 wild type/DeltatarO growth, OD600, 18 h, hits give low values, screened at 18.75 µg/mL (by protocol)
Hit rate of the full screen: of about 52,000 compounds, about 4,300 (8.3%) were called active. What follows is part of a selection rich in actives, with near analogues and random picks from the rest.
Parameter: survival (%)
Express the result in % but write the number alone.

# survival (molecule: Cc1cccc(-c2noc(-c3cccnc3NCc3ccc(Cl)cc3)n2)c1 ) is 73

# survival (molecule: CCOc1ccc(Nc2c(S(=O)(=O)c3ccccc3)cnc3ccc(F)cc23)cc1 ) is 92

# survival (molecule: CC(=O)Nc1cc(C(=O)NCc2ccc(F)cc2)ccc1Sc1ccc(C)cc1 ) is 94

# survival (molecule: CN(Cc1ccccc1)C(=O)Cn1ncc2c3ccccc3n(Cc3cccc(Cl)c3)c2c1=O ) is 90

# survival (molecule: Nc1n[nH]c(N)c1N=Nc1ccc(Cl)cc1 ) is 64

# survival (molecule: COc1ccc(CNCc2c(C(=O)O)c(C)n(Cc3ccccc3C)c2C)cc1OC ) is 91

# survival (molecule: COc1ccccc1N1CCN(C(=O)c2cn(C)c3ccc(S(=O)(=O)N4CCOCC4)cc3c2=O)CC1 ) is 84

# survival (molecule: O=C(CSc1nc(-c2ccccc2)nc2c1CCCC2)c1ccc(Cl)cc1 ) is 76

# survival (molecule: CCOc1ccc(Nc2c(S(=O)(=O)c3ccc(C)cc3)cnc3cc(OC)c(OC)cc23)cc1 ) is 70

# survival (molecule: CS(=O)(=O)NCc1ccc2c(c1)OCO2 ) is 92

# survival (molecule: O=C(Cn1ncc2c3ccccc3n(Cc3ccccc3)c2c1=O)NCc1ccccc1 ) is 93

# survival (molecule: COc1cccc(N=Nc2c(O)[nH]c(=O)[nH]c2=O)c1 ) is 101

# survival (molecule: CCCOC(=O)c1ccc2c(c1)C(=O)N(c1ccccc1)C2=O ) is 78

# survival (molecule: COc1ccc(NC(=O)Cn2nc(-c3ccccc3)c3cnc4ccc(C)cc4c32)cc1 ) is 63

# survival (molecule: Cc1ccc(C(=O)CSc2nc(-c3ccccc3)nc3c2CCCC3)c(C)c1 ) is 47

# survival (molecule: CCOc1ccc(Nc2c(S(=O)(=O)c3ccccc3)cnc3ccc(CC)cc23)cc1 ) is 34

# survival (molecule: CCOc1ccc(Nc2c(S(=O)(=O)c3ccc(C)cc3)cnc3ccc(F)cc23)cc1 ) is 64

# survival (molecule: CCOC(=O)N1CCc2c(sc3c2c(=O)n(Cc2ccccc2)c(=O)n3CC(=O)Nc2ccc(C)cc2C)C1 ) is 71

# survival (molecule: O=C(c1cc(-c2ccc(O)cc2)on1)N1CCN(c2ccccc2)CC1 ) is 96

# survival (molecule: CCOC(=O)CSc1nc2cc(OC)c(OC)cc2c2nc(-c3ccccc3)nn12 ) is 59

# survival (molecule: CN(C)c1ccc(C(C(=O)NCC2CCCO2)N(C(=O)Cn2nnc3ccccc32)c2ccc3c(c2)OCO3)cc1 (configuration not stated) ) is 90

# survival (molecule: CCOc1ccc(Nc2c(S(=O)(=O)c3ccc(Cl)cc3)cnc3ccc(OCC)cc23)cc1 ) is 66

# survival (molecule: Cc1oc(C(=O)O)cc1CN1CCCC1 ) is 100

# survival (molecule: Cc1ccc(-n2c(SCC(=O)NC(C)(C)C)nc(O)cc2=O)cc1 ) is 107

# survival (molecule: COc1ccc(S(=O)(=O)Nc2ccc3c(c2)N(C(C)=O)CCC3)cc1F ) is 85

# survival (molecule: COc1ccc(N(CC(=O)NCCc2ccc(C)cc2)S(=O)(=O)c2c(C)nn(C)c2C)cc1 ) is 71

# survival (molecule: Cc1cc(C(=O)O)c(CN2CCCC2)o1 ) is 74

# survival (molecule: COc1cccc(C(=O)Nc2cccc(C(=O)OCc3cc(=O)n4nc(C(C)C)sc4n3)c2)c1 ) is 101

# survival (molecule: Cc1ccc(NC(=O)N2CC3CCCN3c3ccccc32)c(C)c1 (configuration not stated) ) is 86

# survival (molecule: O=C(CSc1nc(-c2ccccc2)nc2c1CCCC2)c1ccc(F)cc1 ) is 83

# survival (molecule: O=C(CSc1ccccc1)Nc1ccc2c(c1)OCO2 ) is 100

# survival (molecule: COc1ccccc1N1CCN(c2cc(C)nc3nncn23)CC1 ) is 81

# survival (molecule: O=C(NCc1ccco1)C(c1ccccc1)N(CCc1ccccc1)C(=O)Cn1nnc2ccccc21 (configuration not stated) ) is 99

# survival (molecule: CCCN(CCC)c1nn2c(=O)c(C(=O)NCc3cccc(OC)c3)cnc2s1 ) is 84

# survival (molecule: Cc1ccc(C(=O)CSc2nc(-c3ccccc3)nc3c2CCCC3)cc1C ) is 15

# survival (molecule: CCOc1ccc(Nc2c(S(=O)(=O)c3ccc(C)cc3)cnc3ccc(OC)cc23)cc1 ) is 59

# survival (molecule: CCOc1ccc(Nc2c(S(=O)(=O)c3ccccc3)cnc3ccccc23)cc1 ) is 38

# survival (molecule: CC(C)(C)C(=O)Cn1c(=O)n(-c2ccccc2)c(=O)c2c3c(sc21)CCC3 ) is 80

# survival (molecule: Cc1ccc(NC(=O)N2CC3CCCN3c3ccccc32)cc1C (configuration not stated) ) is -4

# survival (molecule: CC1=C(c2ccc(C)cc2)S(=O)(=O)N(Cc2ccc(C(=O)NCc3ccccc3F)cc2)C1=O ) is 80

# survival (molecule: COc1ccc(Cl)cc1NC(=O)Cn1cnc2sc(C)c(S(=O)(=O)N3CCN(c4ccccc4OC)CC3)c2c1=O ) is 79

# survival (molecule: Cc1ccc(NC(=O)N2CC3CCCN3c3ccccc32)cc1Cl (configuration not stated) ) is 62

All values here come from PubChem BioAssay AID463173.
